test system: axenic Leishmania donovani MHOM-ET-67/L82 amastigotes; test: In vitro antiprotozoal assay, axenic amastigotes; type: cell-based; conditions: axenic amastigotes; read-out: L.don.ax. IC50
Square brackets hold non-standard residues; d marks the D form. Peptide text beside a SMILES is read from it. * marks the point of attachment. NH((S)CH(Me)CH2NMe2) = C[C@@H](CN(C)C)N*; NH(1-CH2NMe2-cBu) = CN(C)CC1(N*)CCC1; Benzoyl(4-OMe) = COc1ccc(C(=O)*)cc1; Gly(octyl) = CCCCCCCC[C@H](N)C(=O)O; Oxazole4CO(2-Me) = Cc1nc(C(=O)*)co1; Benzoyl(4-F) = O=C(c1ccc(F)cc1)*; hCha = N[C@@H](CCC1CCCCC1)C(=O)O; X6 = O=C(c1ccnc2cc(Cl)ccc12)*; X8 = O=C(c1coc(-c2ccccc2)n1)*; X2 = C1CCN(CC2(N*)CCC2)CC1; X12 = CN(C)CC1(N*)CCCC1; Aib = CC(C)(N)C(=O)O; X1 = COCCN(CCN*)CCOC; X11 = CN(CCN*)CC(F)F; βAla = NCCC(=O)O
Assignment: determine reported pIC50 for the given compounds.
Reminder that pIC50 is minus the log10 of a molar concentration.

Quick one: pIC50 for Cc1nc(C(=O)N2CCC[C@H]2C(=O)N[C@@H](CC2CCCCC2)C(=O)N[C@@H](CC(C)C)C(=O)NC(C)(C)C(=O)N[C@@H](CC(C)C)C(=O)N[C@@H](CC(C)C)C(=O)NC(C)(C)C(=O)NC(C)(C)C(=O)NCCC(=O)NC2(CN(C)C)CCC2)co1 [Compound 7059] (HELM PEPTIDE1{[Cc1nc(C(=O)[*:2])co1].P.[Cha].L.[Aib].L.L.[Aib].[Aib].[bAla].[CN(C)CC1(N[*:1])CCC1]}$$$$V2.0) ?
8.89

Quick one: pIC50 for CC(C)C[C@H](NC(=O)[C@H](CCC1CCCCC1)NC(=O)[C@@H]1CCCN1C(=O)c1ccc(F)cc1)C(=O)NC(C)(C)C(=O)N[C@@H](CC(C)C)C(=O)N[C@@H](CC(C)C)C(=O)NC(C)(C)C(=O)NC(C)(C)C(=O)NCCC(=O)NC1(CN(C)C)CCC1 [Compound 6027] ({Benzoyl(4-F)}-P[hCha]L[Aib]LL[Aib][Aib][βAla]-{NH(1-CH2NMe2-cBu)}) ?
8.24

Quick one: pIC50 for Cc1nc(C(=O)N2CCC[C@H]2C(=O)N[C@@H](Cc2c[nH]c3ccccc23)C(=O)N[C@@H](CC(C)C)C(=O)NC(C)(C)C(=O)N[C@@H](CC(C)C)C(=O)N[C@@H](CC(C)C)C(=O)NC(C)(C)C(=O)NC(C)(C)C(=O)NCCC(=O)NC2(CN(C)C)CCC2)co1 [Compound 6779] (HELM PEPTIDE1{[Cc1nc(C(=O)[*:2])co1].P.W.L.[Aib].L.L.[Aib].[Aib].[bAla].[CN(C)CC1(N[*:1])CCC1]}$$$$V2.0) ?
7.57

Quick one: pIC50 for CCCCCCCC[C@H](NC(=O)[C@@H]1CCCN1C(=O)c1coc(C)n1)C(=O)N[C@@H](CC(C)C)C(=O)NC(C)(C)C(=O)N[C@@H](CC(C)C)C(=O)N[C@@H](CC(C)C)C(=O)NC(C)(C)C(=O)NC(C)(C)C(=O)NCCC(=O)NC1(CN(C)C)CCC1 [Compound 6253] ({Oxazole4CO(2-Me)}-P[Gly(octyl)]L[Aib]LL[Aib][Aib][βAla]-{NH(1-CH2NMe2-cBu)}) ?
8.59

Quick one: pIC50 for CCCCCCCC[C@H](NC(=O)[C@@H]1CCCN1C(=O)c1ccc(OC)cc1)C(=O)N[C@@H](CC(C)C)C(=O)NC(C)(C)C(=O)N[C@@H](CC(C)C)C(=O)N[C@@H](CC(C)C)C(=O)NC(C)(C)C(=O)NC(C)(C)C(=O)NCCC(=O)N[C@@H](C)CN(C)C [Compound 5912] ({Benzoyl(4-OMe)}-P[Gly(octyl)]L[Aib]LL[Aib][Aib][βAla]-{NH((S)CH(Me)CH2NMe2)}) ?
8.29

Quick one: pIC50 for Cc1nc(C(=O)N2CCC[C@H]2C(=O)N[C@@H](CCC2CCCCC2)C(=O)N[C@@H](CC(C)C)C(=O)NC(C)(C)C(=O)N[C@@H](CC(C)C)C(=O)N[C@@H](CC(C)C)C(=O)NC(C)(C)C(=O)NC(C)(C)C(=O)NCCC(=O)NC2(CN3CCCCC3)CCC2)co1 [Compound 6483] ({Oxazole4CO(2-Me)}-P[hCha]L[Aib]LL[Aib][Aib][βAla]-X2) ?
8.39

Quick one: pIC50 for COCCN(CCNC(=O)CCNC(=O)C(C)(C)NC(=O)C(C)(C)NC(=O)[C@H](CC(C)C)NC(=O)[C@H](CC(C)C)NC(=O)C(C)(C)NC(=O)[C@H](CC(C)C)NC(=O)[C@H](CCC1CCCCC1)NC(=O)[C@@H]1CCCN1C(=O)c1coc(C)n1)CCOC [Compound 6791] ({Oxazole4CO(2-Me)}-P[hCha]L[Aib]LL[Aib][Aib][βAla]-X1) ?
8.68

Quick one: pIC50 for CCCCCCCC[C@H](NC(=O)[C@@H]1CCCN1C(=O)c1coc(-c2ccccc2)n1)C(=O)N[C@@H](CC(C)C)C(=O)NC(C)(C)C(=O)N[C@@H](CC(C)C)C(=O)N[C@@H](CC(C)C)C(=O)NC(C)(C)C(=O)NC(C)(C)C(=O)NCCC(=O)N[C@@H](C)CN(C)C [Compound 5906] (X8-P[Gly(octyl)]L[Aib]LL[Aib][Aib][βAla]-{NH((S)CH(Me)CH2NMe2)}) ?
8.43

Quick one: pIC50 for CCCCCCCC[C@H](NC(=O)[C@@H]1CCCN1C(=O)c1ccnc2cc(Cl)ccc12)C(=O)N[C@@H](CC(C)C)C(=O)NC(C)(C)C(=O)N[C@@H](CC(C)C)C(=O)N[C@@H](CC(C)C)C(=O)NC(C)(C)C(=O)NC(C)(C)C(=O)NCCC(=O)N[C@@H](C)CN(C)C [Compound 5768] (X6-P[Gly(octyl)]L[Aib]LL[Aib][Aib][βAla]-{NH((S)CH(Me)CH2NMe2)}) ?
7.47

Quick one: pIC50 for Cc1nc(C(=O)N2CCC[C@H]2C(=O)N[C@@H](CCC2CCCCC2)C(=O)N[C@@H](CC(C)C)C(=O)NC(C)(C)C(=O)N[C@@H](CC(C)C)C(=O)N[C@@H](CC(C)C)C(=O)NC(C)(C)C(=O)NC(C)(C)C(=O)NCCC(=O)NCCN(C)CC(F)F)co1 [Compound 6488] ({Oxazole4CO(2-Me)}-P[hCha]L[Aib]LL[Aib][Aib][βAla]-X11) ?
6.37

Quick one: pIC50 for CCCCCCCC[C@H](NC(=O)[C@@H]1CCCN1C(=O)c1coc(C)n1)C(=O)N[C@@H](CC(C)C)C(=O)NC(C)(C)C(=O)N[C@@H](CC(C)C)C(=O)N[C@@H](CC(C)C)C(=O)NC(C)(C)C(=O)NC(C)(C)C(=O)NCCC(=O)NC1(CN(C)C)CCCC1 [Compound 6254] ({Oxazole4CO(2-Me)}-P[Gly(octyl)]L[Aib]LL[Aib][Aib][βAla]-X12) ?
8.60
